Hi there, I'd appreciate the recorded double positive events for every entry that follows.
# procedure.text: inhibitors of CD8+ T cell-vesicle binding, pilot screen, LFA-1/ICAM-1 modulator project, MLPCN validation set, flow cytometry (AID 2523)
# experimental.conditions: 2C mouse CD8+ T cells, at 7 µM, stronger effect = lower value; measured here: CD8+/vesicle+ event percentage

-- ask Requested field: double positive events. Item: CCn1c2ccccc2c2cc(CC(N)=O)ccc21
-- reply 60.8%

-- ask What about CC1(C)CC(=O)C(C2(O)C(=O)Nc3ccccc32)CO1 (configuration not stated) ?
-- reply 69%

-- ask What about CC1(C)S[C@@H]2[C@H](NC(=O)C(C(=O)O)c3ccccc3)C(=O)N2[C@H]1C(=O)O (some centres not stated) ?
-- reply 53.1%

-- ask What about CC(=O)OCC(OC(C)=O)C(OC(C)=O)C(OC(C)=O)C(=O)Nc1cccc(C)c1 (configuration not stated) ?
-- reply 59.9%

-- ask What about CNc1nc(Nc2ccccc2)nc(OCC(F)(F)F)n1 ?
-- reply 64.8%

-- ask What about Clc1ccc(OCCCN2CCCCC2)c(Br)c1 ?
-- reply 57.1%

-- ask What about O=C(/C=C/c1ccco1)NCc1ccc2c(c1)OCO2 ?
-- reply 63%

-- ask What about CC1(C)C2CCC1(C(=O)O)c1nc3ccccc3nc12 (configuration not stated) ?
-- reply 61.8%

-- ask What about Cc1cccc(N(C)C(=S)Oc2ccc3ccccc3c2)c1 ?
-- reply 86.4%

-- ask What about O=C(c1ccccc1F)c1cc2c(cc1[N+](=O)[O-])OCCO2 ?
-- reply 63%

-- ask What about CCc1cc2c(=O)c(-c3nc4ccccc4n3C)coc2c(CN2CCN(C)CC2)c1O ?
-- reply 49.7%

-- ask What about C#C[C@]1(O)CC[C@H]2[C@@H]3CCC4=C(CCC(=O)C4)[C@H]3CC[C@@]21C ?
-- reply 55.6%

-- ask What about COc1ccc(Cl)cc1C(=O)NCCc1ccc(S(=O)(=O)NC(=O)NC2CCCCC2)cc1 ?
-- reply 60.4%

-- ask What about COc1cccc(OC)c1C(=O)Nc1nc2ccc([N+](=O)[O-])cc2s1 ?
-- reply 60.8%

-- ask What about CCN(CC)C1=C(Cl)C(=O)C(Cl)C12OCCO2 (configuration not stated) ?
-- reply 61.5%

-- ask What about CN(CCCN1CCOCC1)Cc1cn(C)nc1-c1ccccc1F ?
-- reply 62.1%

-- ask What about O=C(O)CCn1c(=S)n(CCC(=O)O)c2ccccc21 ?
-- reply 53.4%

-- ask What about CCOC(=O)c1ccccc1NC(=O)c1ccc(F)cc1 ?
-- reply 60.4%

-- ask What about C[C@@H]1C[C@H]2[C@@H]3CCC4=CC(=O)C=C[C@]4(C)[C@@]3(F)[C@@H](O)C[C@]2(C)[C@@]1(O)C(=O)COP(=O)(O)O ?
-- reply 53.3%

-- ask What about CCN(CC)C(=O)c1ccc(O)c(OC)c1 ?
-- reply 53.9%

-- ask What about CN(C)CCCN1c2ccccc2CCc2ccc(Cl)cc21 ?
-- reply 65%

-- ask What about Cc1ccccc1OCC(O)CN1CCN(C)CC1 (configuration not stated) ?
-- reply 62.9%

-- ask What about CC1(C(=O)O)CCC(C(=O)NC2CCCCCC2)C1(C)C (configuration not stated) ?
-- reply 67.7%

-- ask What about CCOc1ccc(NC(=O)N[C@@H](CCSC)C(=O)OC)cc1 ?
-- reply 52.6%

-- ask What about COC1CCCCC1Nc1ccc(C)c(C)c1 (configuration not stated) ?
-- reply 59.5%

-- ask What about CCOC(=O)Nc1ccc2c(c1)N(C(=O)CCN1CCOCC1)c1ccccc1S2 ?
-- reply 48.8%

-- ask What about C[C@]12CCC(=O)C=C1CC[C@@H]1[C@@H]2CC[C@@]2(C)[C@H]1CC[C@]2(O)C(=O)CO ?
-- reply 54.2%

-- ask What about CN(Cc1ccccc1)CC(O)COc1ccc(CNCc2cccnc2)cc1 (configuration not stated) ?
-- reply 56.7%

-- ask What about CC12CCC(C(=O)N3CCCCC3)([C@H](Br)C1=O)C2(C)C (some centres not stated) ?
-- reply 65.8%

-- ask What about O=C(c1ccc(O)cc1)c1ccc(O)cc1O ?
-- reply 59.2%

-- ask What about O=C1OC(c2ccc(O)cc2)(c2ccc(O)cc2)c2ccccc21 ?
-- reply 62.5%

-- ask What about CC(C)(C)NCC(O)c1cc(O)cc(O)c1 (configuration not stated) ?
-- reply 61.6%

-- ask What about CC1(C)CC(=O)c2cc(O)ccc2O1 ?
-- reply 61%

-- ask What about Cc1oc(/C=N/NC(=O)CC2(C)OCCO2)cc1Br ?
-- reply 60.6%

-- ask What about O=C(NCc1ccccc1Cl)NC(=O)c1ccccc1 ?
-- reply 62%

-- ask What about O=C(C1CCCCC1)N1CC(=O)N2CCc3ccccc3C2C1 (configuration not stated) ?
-- reply 61.4%

-- ask What about OCCN1CCN(CCCN2c3ccccc3Sc3ccc(Cl)cc32)CC1 ?
-- reply 64.3%

-- ask What about O=c1[nH]c(=O)n([C@H]2C[C@H](O)[C@@H](CO)O2)cc1F ?
-- reply 72.9%

-- ask What about Cc1nc(C(=O)Nc2ccccc2Cl)cc2c1[nH]c1ccccc12 ?
-- reply 53.9%

-- ask What about CCN(CC)C(=S)SSC(=S)N(CC)CC ?
-- reply 59.7%

-- ask What about CC(=O)c1cn(C)c(=O)[nH]c1=O ?
-- reply 60.8%

-- ask What about COc1ccc(OC)c(-c2oc3ccccc3c(=O)c2O)c1 ?
-- reply 57%

-- ask What about CC(=O)Nc1cc(O)cc(O)c1 ?
-- reply 60.5%

-- ask What about Cc1ccc2[nH]c3c(c2c1)CN(C)CC3 ?
-- reply 63.4%

-- ask What about O=C(O)C1Sc2[nH]c(=O)sc2C2c3ccc(O)cc3OC(=O)C12 (configuration not stated) ?
-- reply 62.6%

-- ask What about Cn1c2[n+](c3ccc(Cl)cc3c1=O)Cc1ccccc1-2 ?
-- reply 69%

-- ask What about CN1[C@@H](CC(=O)c2ccccc2)CCC[C@H]1C[C@H](O)c1ccccc1 ?
-- reply 61.3%

Reference for the values: PubChem BioAssay
